Values compiled from patent US12371428B2.

pIC50 for assorted molecules
# ASSAYED TARGET: KDR (phospho-KDR, VEGF165-stimulated HUVEC cells) (Homo sapiens (Human))
# Sequence (P35968 20-1356): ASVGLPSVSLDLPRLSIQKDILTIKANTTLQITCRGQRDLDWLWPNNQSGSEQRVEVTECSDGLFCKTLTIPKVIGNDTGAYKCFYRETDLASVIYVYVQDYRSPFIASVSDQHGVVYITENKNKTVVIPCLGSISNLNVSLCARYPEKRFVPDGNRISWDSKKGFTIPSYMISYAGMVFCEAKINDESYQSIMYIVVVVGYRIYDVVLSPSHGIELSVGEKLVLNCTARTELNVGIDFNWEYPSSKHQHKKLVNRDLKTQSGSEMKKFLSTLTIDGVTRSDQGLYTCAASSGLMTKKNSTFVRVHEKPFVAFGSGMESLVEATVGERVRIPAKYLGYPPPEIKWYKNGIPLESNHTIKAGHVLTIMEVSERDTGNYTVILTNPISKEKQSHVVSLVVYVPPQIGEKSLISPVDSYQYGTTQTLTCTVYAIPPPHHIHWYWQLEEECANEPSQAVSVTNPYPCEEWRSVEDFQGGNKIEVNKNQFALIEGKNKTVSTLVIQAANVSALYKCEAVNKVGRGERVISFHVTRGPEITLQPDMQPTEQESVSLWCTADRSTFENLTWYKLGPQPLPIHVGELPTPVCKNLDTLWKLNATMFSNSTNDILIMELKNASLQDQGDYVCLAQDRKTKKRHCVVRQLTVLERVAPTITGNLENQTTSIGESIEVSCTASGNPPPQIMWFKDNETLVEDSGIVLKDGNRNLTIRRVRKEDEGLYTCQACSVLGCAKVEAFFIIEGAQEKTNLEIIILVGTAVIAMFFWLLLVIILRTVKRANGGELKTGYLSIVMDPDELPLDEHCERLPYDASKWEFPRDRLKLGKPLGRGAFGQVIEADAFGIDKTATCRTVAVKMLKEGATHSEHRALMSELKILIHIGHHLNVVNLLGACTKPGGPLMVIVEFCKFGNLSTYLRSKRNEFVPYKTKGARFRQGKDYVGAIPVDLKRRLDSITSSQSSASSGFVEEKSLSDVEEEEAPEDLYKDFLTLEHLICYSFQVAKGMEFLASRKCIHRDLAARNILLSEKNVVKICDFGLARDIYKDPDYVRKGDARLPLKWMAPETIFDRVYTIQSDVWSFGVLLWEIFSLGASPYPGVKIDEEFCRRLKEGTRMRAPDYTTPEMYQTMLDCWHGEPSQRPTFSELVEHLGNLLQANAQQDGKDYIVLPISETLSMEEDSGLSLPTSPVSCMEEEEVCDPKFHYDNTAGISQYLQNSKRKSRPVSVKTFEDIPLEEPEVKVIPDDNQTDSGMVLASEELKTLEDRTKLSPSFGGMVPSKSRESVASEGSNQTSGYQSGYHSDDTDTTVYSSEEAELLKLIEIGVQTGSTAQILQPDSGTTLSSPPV
# METHOD SUMMARY: KDR autophosphorylation ELISA in HUVEC cells (Example G)
# Format: cell-based
# CONDITIONS: cellular activity; KDR autophosphorylation ELISA in HUVEC cells
pIC50: −log10 of the molar value. Where a name gives a salt, the structure may show the parent alone.

Solved entries:
Test system KDR (phospho-KDR, VEGF165-stimulated HUVEC cells) (Homo sapiens (Human)); read-out pIC50; what value for COc1cc2nccc(Oc3ccc(NC(=O)c4c5n(cc(-c6ccc(F)cc6)c4=O)CCC5)cc3)c2nc1OC ? < 6.52

Also need COc1cc2nccc(Oc3ccc(NC(=O)c4c(C)ccn(-c5ccc(F)cc5C)c4=O)cc3F)c2nc1OC , thanks. > 7.00

And the next one, CCn1cc(C(=O)Nc2ccc(Oc3ccnc4cc(OC)cnc34)c(F)c2)c(=O)c(-c2ccc(F)cc2)c1C ? < 6.52

Record: Cc1nc(C)c(-c2ccc(F)cc2)c(O)c1C(=O)Nc1ccc(Oc2ccnc3ccc(OCCN4CCOCC4)nc23)c(F)c1 > 7.00

Another: CCn1cc(C(=O)Nc2ccc(Oc3ccnc4cc(OC)cnc34)cc2)c(=O)c(-c2ccc(F)cc2)c1 < 6.52

// next record CCOc1nc2c(Oc3ccc(NC(=O)c4c(C)ncc(-c5ccc(F)cc5)c4O)cc3)ccnc2cc1OC > 7.00

Do the same for COCc1nc(C)c(-c2ccc(F)cc2)c(O)c1C(=O)Nc1ccc(Oc2ccnc3ccc(OC)cc23)c(F)c1 please > 7.00

Could you do the same for COc1cc2nccc(Oc3ncc(NC(=O)c4cn(C5CC5)cc(-c5ccc(F)cc5)c4=O)cc3F)c2cc1OC , please? < 6.52

Same lookup for COc1cc2nccc(Oc3ccc(NC(=O)c4c(C)n(C)cc(-c5ccc(F)cc5)c4=O)cc3F)c2nc1OC , please. > 7.00

# repeat for CNc1c(-c2ccc(F)cc2)c(=O)c(C(=O)Nc2ccc(Oc3ccnc4cc(OC)c(OC)nc34)c(F)c2)cn1C > 7.00

Further cases:
Notebook: pull reported pIC50 for KDR (phospho-KDR, VEGF165-stimulated HUVEC cells) (Homo sapiens (Human)), entry Cc1ncc(C(=O)Nc2ccc(Oc3ccnc4cnc(Cl)cc34)c(F)c2)c(O)c1-c1ccc(F)cc1 > 7.00

Same for COc1cnc2c(Oc3ccc(NC(=O)c4nnc(C)c(-c5ccc(F)cc5C)c4O)cc3F)ccnc2c1 (single isomer, unassigned) [Compound 249C] > 7.00

Same question for COc1nc2c(Oc3ccc(NC(=O)c4cn(C(C)C)c(C)c(-c5ccc(F)cc5)c4=O)cc3F)ccnc2cc1Br please. 6.52 to 7.00

Try this molecule next: Cc1ccc2nccc(Oc3ccc(NC(=O)c4c(C)nc(C)c(-c5ccc(F)cc5C)c4O)cc3F)c2n1 > 7.00

Follow-up entry: Cc1nc2c(Oc3ccc(NC(=O)c4cnc(C)c(-c5ccc(F)cc5)c4O)cc3F)ccnc2cc1-c1cnn(C(F)F)c1 [Compound 615, hydrochloride] > 7.00

And what about the molecule COc1ccc2nccc(Oc3ccc(NC(=O)c4c(C)n(C)cc(-c5ccc(F)cc5)c4=O)cc3F)c2n1 ? < 6.52

Can you check COc1cc2nccc(Oc3ccc(NC(=O)c4cn(CC(F)(F)F)c(C)c(-c5ccc(F)cc5)c4=O)cc3F)c2cc1OC next? 6.52 to 7.00

Ok, now CNC(=O)c1c(-c2ccc(F)cc2)c(=O)c(C(=O)Nc2ccc(Oc3ccnc4cc(OC)c(OC)nc34)c(F)c2)cn1C < 6.52

# repeat for COc1cnc2c(Oc3ccc(NC(=O)c4c(C)c(C)c(C)n(-c5ccc(F)cc5)c4=O)cc3)ccnc2c1 > 7.00

Repeat with COc1cc2nccc(Oc3ccc(NC(=O)c4c(C)ncc(-c5ccc(F)c(F)c5)c4O)cc3F)c2nc1OC > 7.00

Likewise for COCc1nc(C)c(-c2ccc(F)cc2)c(O)c1C(=O)Nc1ccc(Oc2ccnc3cc(OC)cnc23)cc1 ? > 7.00

Also COc1cc2nccc(Oc3ccc(NC(=O)c4cc(C(C)O)c(C)n(-c5ccc(F)cc5)c4=O)cc3F)c2nc1OC (stereo not shown) , if possible. < 6.52

Query CNn1cc(C(=O)Nc2ccc(Oc3ccnc4cc(OC)c(OC)nc34)c(F)c2)c(=O)c(-c2ccc(F)cc2)c1 next > 7.00
